target.system: µOR (Homo sapiens)
Sequence (P35372 whole entry, the tested form may be a part): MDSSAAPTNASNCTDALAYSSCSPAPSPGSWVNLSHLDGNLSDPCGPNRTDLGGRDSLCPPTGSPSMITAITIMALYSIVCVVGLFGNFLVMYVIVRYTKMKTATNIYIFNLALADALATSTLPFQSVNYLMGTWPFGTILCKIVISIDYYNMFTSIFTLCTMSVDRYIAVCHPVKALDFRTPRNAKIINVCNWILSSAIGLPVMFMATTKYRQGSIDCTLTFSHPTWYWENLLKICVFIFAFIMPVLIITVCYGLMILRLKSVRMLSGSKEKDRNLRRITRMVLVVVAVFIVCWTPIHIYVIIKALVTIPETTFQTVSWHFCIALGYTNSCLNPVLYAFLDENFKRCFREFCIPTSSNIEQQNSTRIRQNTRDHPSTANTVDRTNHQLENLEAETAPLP
assay.name: β-arrestin-2 recruitment, enzyme-fragment complementation assay in HEK-293 cells
Type: cell-based
Parameters: expressed in transfected cells; host or cells: HEK-293 cells stably expressing EA-tagged β-arrestin-2, transiently transfected with µOR-PK1
cond: HEK293; relative to the full effect of reference agonist DAMGO [=100%]
reported.metric: Emax

INSERT INTO assay_data (compound, result_value) VALUES
  ('CN(C)[C@H](CNC(=O)/C=C/c1cccc2ccccc12)Cc1ccc(C(N)=O)cc1', '4%');

Query :: What does the record list as Emax for CN(C)[C@H](CNC(=O)C#Cc1ccccc1)Cc1ccc(O)cc1 ?
Result :: < 5%

Query :: What does the record list as Emax for NC(=O)c1ccc(C[C@H](N)CNC(=O)/C=C/c2cccc(C(F)(F)F)c2)cc1 ?
Result :: < 5%

Query :: What does the record list as Emax for C/C(=C\C(=O)NC[C@H](Cc1ccc(O)cc1)N(C)C)c1ccccc1 ?
Result :: < 5%

Query :: What does the record list as Emax for C/C(=C\c1ccccc1)C(=O)NC[C@H](Cc1ccc(O)cc1)N(C)C ?
Result :: < 5%

Query :: What does the record list as Emax for CN(C)[C@H](CNC(=O)/C=C/c1cccc(C(F)(F)F)c1)Cc1ccc(O)cc1 ?
Result :: < 5%

Query :: What does the record list as Emax for CN(C)[C@H](CNC(=O)/C=C/c1cccc2ccccc12)Cc1ccc(O)cc1 ?
Result :: < 5%

Query :: What does the record list as Emax for CN(C)[C@H](CNC(=O)/C=C/c1cccc(C(F)(F)F)c1)Cc1ccc(C(N)=O)cc1 ?
Result :: 5%

Query :: What does the record list as Emax for Cc1cc(O)cc(C)c1C[C@H](N)CNC(=O)/C=C/c1ccccc1 ?
Result :: < 5%

Query :: What does the record list as Emax for CN(C)[C@H](CNC(=O)C=Cc1ccccc1)Cc1ccc(O)cc1 (stereo in doubt) ?
Result :: < 5%
